Source listed as ChEMBL document CHEMBL3885881.

- Species on record: Rattus norvegicus
- protocol_notes: DrugMatrix - Regimen: Daily Repeat
- Type: toxicity, organism-based, Sprague-Dawley
- Design: regimen Daily Repeat, gender Male, age 6-8 weeks
- experimental_conditions: in vivo, po, 0 mg/kg, 120 h, tissue Plasma, route oral GAVAGE, dose level Control, time 5 day, vehicle .5 % CMC
Let's look at some molecules and their measured ALANINE AMINOTRANSFERASE.
// return numeric value only (unit: u/L, not printed)

Some molecules with known ALANINE AMINOTRANSFERASE results, for comparison:
{"molecule": "CC(=O)O[C@]1(C(C)=O)CC[C@H]2[C@@H]3C=C(Cl)C4=CC(=O)[C@@H]5C[C@@H]5[C@]4(C)[C@H]3CC[C@@]21C [CYPROTERONE ACETATE]", "result_number": 54.5}
{"molecule": "CC(C)(Sc1cc(C(C)(C)C)c(O)c(C(C)(C)C)c1)Sc1cc(C(C)(C)C)c(O)c(C(C)(C)C)c1 [PROBUCOL]", "result_number": 46.5}
{"molecule": "C[C@@H]1CC[C@H]2[C@@H](C)C(=O)O[C@@H]3O[C@@]4(C)CC[C@@H]1[C@]32OO4 [ARTEMISININ]", "result_number": 49.17}
{"molecule": "C[C@@H](O)[C@H]1C(=O)N2C(C(=O)O)=C(S[C@@H]3CN[C@H](C(=O)N(C)C)C3)[C@H](C)[C@H]12 [MEROPENEM]", "result_number": 46.5}
{"molecule": "COc1ccccc1OCC(O)COC(N)=O (stereo not drawn) [METHOCARBAMOL]", "result_number": 49.17}
{"molecule": "CC(C(=O)O)c1ccc(-c2ccccc2)c(F)c1 (stereo not drawn) [FLURBIPROFEN]", "result_number": 46.5}

Problem: Need ALANINE AMINOTRANSFERASE, item CC[C@]1(O)CC[C@H]2[C@@H]3CCC4=CCCC[C@@H]4[C@H]3CC[C@@]21C
Result: 44

Problem: What about this molecule? CCCCC1C(=O)N(c2ccccc2)N(c2ccccc2)C1=O [PHENYLBUTAZONE]
Result: 49.67
